molecules and their reported GI50
tested on: NCI-H226; assay: NCI tumour cell line growth inhibition, 48 h
Calls of active or inactive are those of the source. No stated cut-off is given here; in the data, active = GI50 up to about 1.1 µM and inactive = higher. Where a SMILES comes first, the peptide text is derived from it.
MEASURED_METRIC: GI50

INSERT INTO measurements (molecule, recorded_value) VALUES
  ('COc1ccc2nc(NC(=O)C(=O)NNC(=O)c3ccncc3)sc2c1', '> 100 µM (inactive)'),
  ('Cn1c([C@H](C#N)c2ncccc2[N+](=O)[O-])nc2ccccc21', '> 100 µM (inactive)'),
  ('CC(C)=CC(C(O)c1ccccc1)S(=O)(=O)c1nccn1C (configuration not stated)', '> 100 µM (inactive)'),
  ('CC(C)C1=Cc2ccc3c(c2C(=O)C1=O)CCCC3', '15 µM (inactive)'),
  ('O=C1c2c(nc3ccccc3c2-c2ccccc2)CN1Nc1ccccc1', '> 100 µM (inactive)'),
  ('CN(C)/C=N/NC(=O)/C(C#N)=C/N(C)C', '> 100 µM (inactive)'),
  ('CC(=O)NC(CS)C(=O)NC(CO)C(=O)NC(CO)C(=O)NC(Cc1c[nH]c2ccccc12)C(=O)N1CCCC1C(=O)NC(CO)C(=O)NC(Cc1c[nH]c2ccccc12)C(=O)NC(Cc1c[nH]cn1)C(=O)NC(CO)C(=O)NC(Cc1c[nH]c2ccccc12)C(=O)NCC(=O)NCC(=O)NC(CC(=O)O)C(=O)NC(CCC(N)=O)C(=O)NC(CCCCN)C(=O)NC(Cc1ccccc1)C(=O)NC(CCCNC(=N)N)C(=O)NC(CCCCN)C(N)=O (configuration not stated) (Ac-CSSWPSWHSWGGDQKFRK-NH2; configuration not given here)', '> 25 µM (inactive)');
